Where do these numbers come from? They come from PubChem BioAssay (NCI).

Test system: SNB-75 CNS
ASSAY TEXT: NCI tumour cell line growth inhibition, 48 h
PROPERTY MEASURED: TGI (µM)

>>> result_number("COc1ccc2c(c1)c(CC(=O)[Se]CCC#N)c(C)n2C(=O)c1ccc(Cl)cc1")
3.72
>>> result_number("O=C1C(N2CCN(c3ccccc3)CC2)=C(Cl)C(=O)c2ncccc21")
38
>>> result_number("C=C(C=O)[C@@H]1CC[C@]2(C)[C@H](CC=C3[C@H]4[C@@H](C)[C@H](C)CC[C@]4(C(=O)OC)CC[C@]32C)[C@@]1(C)CCC#N")
3.01
>>> result_number("Cc1ccc2c(n1)C(=O)C(Cl)=C(Nc1cccc(C(C)C)c1)C2=O")
3.19

---

Test system: U251 CNS
ASSAY TEXT: NCI tumour cell line growth inhibition, 48 h
Assign class by TGI: not lower than 10 µM means T; lower than 10 µM means F.

>>> qualitative_label("CN1CCN(c2nc(-c3csc(-c4ccccc4)n3)cc3ccccc23)CC1")
"F"
>>> qualitative_label("COc1cc2c3c(cc4c5c(ccc4c3c1OC)OCO5)N(CCN(C)C)C2=O")
"F"
>>> qualitative_label("O=C1C(N2CCN(c3ccccc3)CC2)=C(Cl)C(=O)c2ncccc21")
"T"
>>> qualitative_label("Cc1ccc2c(n1)C(=O)C(Cl)=C(Nc1cccc(C(C)C)c1)C2=O")
"T"
>>> qualitative_label("C=C(C)[C@@H]1CC[C@]2(COS(C)(=O)=O)CC[C@]3(C)[C@H](CC[C@@H]4[C@@]5(C)CCCNC(C)(C)[C@@H]5CC[C@]43C)[C@@H]12")
"F"

---

Tested on: EKVX NSCLC
ASSAY TEXT: NCI tumour cell line growth inhibition, 48 h
Listed here: items and their measured TGI.
PROPERTY MEASURED: TGI (µM)

>>> result_number("O=C1C(N2CCN(c3ccccc3)CC2)=C(Cl)C(=O)c2ncccc21")
3.38
>>> result_number("C=C(C)[C@@H]1CC[C@]2(COS(C)(=O)=O)CC[C@]3(C)[C@H](CC[C@@H]4[C@@]5(C)CCCNC(C)(C)[C@@H]5CC[C@]43C)[C@@H]12")
3.14
>>> result_number("CN1CCN(c2nc(-c3csc(-c4ccccc4)n3)cc3ccccc23)CC1")
13
>>> result_number("Cc1ccc2c(n1)C(=O)C(Cl)=C(Nc1cccc(C(C)C)c1)C2=O")
3.24
>>> result_number("COc1cc2c3c(cc4c5c(ccc4c3c1OC)OCO5)N(CCN(C)C)C2=O")
0.669

---

System: SW-620 colon
ASSAY TEXT: NCI tumour cell line growth inhibition, 48 h; in the data active = GI50 below about 0.43 µM; inactive = the rest
Classes used: YES for active, NO for inactive

>>> qualitative_label("COc1cc2c3c(cc4c5c(ccc4c3c1OC)OCO5)N(CCN(C)C)C2=O")
"YES"
>>> qualitative_label("COc1ccc2c(c1)c(CC(=O)[Se]CCC#N)c(C)n2C(=O)c1ccc(Cl)cc1")
"NO"
>>> qualitative_label("O=C1C(N2CCN(c3ccccc3)CC2)=C(Cl)C(=O)c2ncccc21")
"NO"
>>> qualitative_label("CN1CCN(c2nc(-c3csc(-c4ccccc4)n3)cc3ccccc23)CC1")
"NO"

---

Test system: T-47D breast
ASSAY TEXT: NCI tumour cell line growth inhibition, 48 h
Assign class by TGI: not lower than 4 µM means True; lower than 4 µM means False.

>>> qualitative_label("COCCNc1ccc2ncc(C#Cc3cncc(C(=O)Nc4ccc(CN5CCN(C)CC5)c(C(F)(F)F)c4)c3)n2n1")
"False"
>>> qualitative_label("Cc1ccc2c(n1)C(=O)C(Cl)=C(Nc1cccc(C(C)C)c1)C2=O")
"True"
>>> qualitative_label("CN1CCN(c2nc(-c3csc(-c4ccccc4)n3)cc3ccccc23)CC1")
"True"
>>> qualitative_label("COc1cc2c3c(cc4c5c(ccc4c3c1OC)OCO5)N(CCN(C)C)C2=O")
"False"

---

Listed here: items and their measured GI50.
System: LOX IMVI melanoma
ASSAY TEXT: NCI tumour cell line growth inhibition, 48 h
PROPERTY MEASURED: GI50

>>> result("C=C(C=O)[C@@H]1CC[C@]2(C)[C@H](CC=C3[C@H]4[C@@H](C)[C@H](C)CC[C@]4(C(=O)OC)CC[C@]32C)[C@@]1(C)CCC#N")
"1610 nM"
>>> result("COCCNc1ccc2ncc(C#Cc3cncc(C(=O)Nc4ccc(CN5CCN(C)CC5)c(C(F)(F)F)c4)c3)n2n1")
"97.3 nM"
>>> result("Cc1ccc2c(n1)C(=O)C(Cl)=C(Nc1cccc(C(C)C)c1)C2=O")
"698 nM"
>>> result("CN1CCN(c2nc(-c3csc(-c4ccccc4)n3)cc3ccccc23)CC1")
"1660 nM"

---

Listed here: items and their measured GI50.
Tested on: 786-0 renal
ASSAY TEXT: NCI tumour cell line growth inhibition, 48 h
PROPERTY MEASURED: GI50

>>> result("C=C(C=O)[C@@H]1CC[C@]2(C)[C@H](CC=C3[C@H]4[C@@H](C)[C@H](C)CC[C@]4(C(=O)OC)CC[C@]32C)[C@@]1(C)CCC#N")
"1730 nM"
>>> result("C=C(C)[C@@H]1CC[C@]2(COS(C)(=O)=O)CC[C@]3(C)[C@H](CC[C@@H]4[C@@]5(C)CCCNC(C)(C)[C@@H]5CC[C@]43C)[C@@H]12")
"1800 nM"
>>> result("O=C1C(N2CCN(c3ccccc3)CC2)=C(Cl)C(=O)c2ncccc21")
"6430 nM"
>>> result("Cc1ccc2c(n1)C(=O)C(Cl)=C(Nc1cccc(C(C)C)c1)C2=O")
"2180 nM"

---

Tested on: OVCAR-3 ovarian
ASSAY TEXT: NCI tumour cell line growth inhibition, 48 h
PROPERTY MEASURED: TGI (µM)

>>> result_number("COc1cc2c3c(cc4c5c(ccc4c3c1OC)OCO5)N(CCN(C)C)C2=O")
1.14
>>> result_number("C=C(C)[C@@H]1CC[C@]2(COS(C)(=O)=O)CC[C@]3(C)[C@H](CC[C@@H]4[C@@]5(C)CCCNC(C)(C)[C@@H]5CC[C@]43C)[C@@H]12")
3.22
>>> result_number("COCCNc1ccc2ncc(C#Cc3cncc(C(=O)Nc4ccc(CN5CCN(C)CC5)c(C(F)(F)F)c4)c3)n2n1")
1.34
>>> result_number("CN1CCN(c2nc(-c3csc(-c4ccccc4)n3)cc3ccccc23)CC1")
11.8

---

Test system: SF-268 CNS
ASSAY TEXT: NCI tumour cell line growth inhibition, 48 h
PROPERTY MEASURED: TGI (µM)

>>> result_number("C=C(C)[C@@H]1CC[C@]2(COS(C)(=O)=O)CC[C@]3(C)[C@H](CC[C@@H]4[C@@]5(C)CCCNC(C)(C)[C@@H]5CC[C@]43C)[C@@H]12")
6.49
>>> result_number("Cc1ccc2c(n1)C(=O)C(Cl)=C(Nc1cccc(C(C)C)c1)C2=O")
34.6
>>> result_number("C=C(C=O)[C@@H]1CC[C@]2(C)[C@H](CC=C3[C@H]4[C@@H](C)[C@H](C)CC[C@]4(C(=O)OC)CC[C@]32C)[C@@]1(C)CCC#N")
3.57
>>> result_number("O=C1C(N2CCN(c3ccccc3)CC2)=C(Cl)C(=O)c2ncccc21")
29.6

---

Test system: MALME-3M melanoma
ASSAY TEXT: NCI tumour cell line growth inhibition, 48 h
PROPERTY MEASURED: TGI (µM)

>>> result_number("C=C(C=O)[C@@H]1CC[C@]2(C)[C@H](CC=C3[C@H]4[C@@H](C)[C@H](C)CC[C@]4(C(=O)OC)CC[C@]32C)[C@@]1(C)CCC#N")
3.69
>>> result_number("C=C(C)[C@@H]1CC[C@]2(COS(C)(=O)=O)CC[C@]3(C)[C@H](CC[C@@H]4[C@@]5(C)CCCNC(C)(C)[C@@H]5CC[C@]43C)[C@@H]12")
3.73
>>> result_number("O=C1C(N2CCN(c3ccccc3)CC2)=C(Cl)C(=O)c2ncccc21")
4.25
>>> result_number("COc1ccc2c(c1)c(CC(=O)[Se]CCC#N)c(C)n2C(=O)c1ccc(Cl)cc1")
4.36

---

Test system: HS 578T breast
ASSAY TEXT: NCI tumour cell line growth inhibition, 48 h; in the data active means GI50 below about 0.43 µM; inactive means the rest
Classes used: active, inactive

>>> qualitative_label("Cc1ccc2c(n1)C(=O)C(Cl)=C(Nc1cccc(C(C)C)c1)C2=O")
"inactive"
>>> qualitative_label("COc1cc2c3c(cc4c5c(ccc4c3c1OC)OCO5)N(CCN(C)C)C2=O")
"active"
>>> qualitative_label("CN1CCN(c2nc(-c3csc(-c4ccccc4)n3)cc3ccccc23)CC1")
"inactive"
>>> qualitative_label("C=C(C=O)[C@@H]1CC[C@]2(C)[C@H](CC=C3[C@H]4[C@@H](C)[C@H](C)CC[C@]4(C(=O)OC)CC[C@]32C)[C@@]1(C)CCC#N")
"inactive"
